test_target: Intestinal-type alkaline phosphatase (Homo sapiens, UniProt P09923)
Sequence (P09923 whole entry): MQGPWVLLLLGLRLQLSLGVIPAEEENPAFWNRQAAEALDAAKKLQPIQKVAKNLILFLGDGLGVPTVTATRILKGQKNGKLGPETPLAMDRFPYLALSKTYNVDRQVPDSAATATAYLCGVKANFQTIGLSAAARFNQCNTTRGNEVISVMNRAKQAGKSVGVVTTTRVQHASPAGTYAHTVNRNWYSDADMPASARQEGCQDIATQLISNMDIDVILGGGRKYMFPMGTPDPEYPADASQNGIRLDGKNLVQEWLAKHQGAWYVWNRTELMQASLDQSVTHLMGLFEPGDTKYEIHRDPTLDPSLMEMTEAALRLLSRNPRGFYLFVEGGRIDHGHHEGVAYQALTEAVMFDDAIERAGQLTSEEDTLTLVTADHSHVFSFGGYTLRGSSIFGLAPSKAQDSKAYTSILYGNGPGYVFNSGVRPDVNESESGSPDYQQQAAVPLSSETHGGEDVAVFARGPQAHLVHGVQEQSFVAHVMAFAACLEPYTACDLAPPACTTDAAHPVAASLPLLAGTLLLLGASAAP
measurement_protocol: human intestinal alkaline phosphatase activators, dose response, biochemical, luminescence, uHTS hits (AID 463120)
measure: EC50 (µM)

1: Cc1cc(Br)ccc1SCC(=O)OCC(=O)C(C#N)c1nc2ccccc2[nH]1 (stereo not drawn)
2: CCc1ccc(CN=Nc2ncnc3nc[nH]c23)cc1 [MLS000419199]
Pick the one with the larger EC50: 1 vs 2 State the label of the item chosen.
1

P: C=c1[nH]n(-c2nc3ccccc3[nH]2)c(=O)c1=CN(C)C
Q: O=Nc1[nH]c(=O)c(CC(=O)c2ccccc2)nc1NO [SMR000539633]
// max by EC50 over [ P , Q ] # respond with the chosen item's label
P

====

Below, each entry is listed alongside its reported EC50.
test_target: Intestinal-type alkaline phosphatase (Homo sapiens)
measurement_protocol: human intestinal alkaline phosphatase activators, dose response, biochemical, luminescence, uHTS hits (AID 463120)

Observe how each entry below is paired with its result.
O=c1c2ccccc2nc(N=NCc2c(O)ccc3ccccc23)n1O 13.6 µM
COc1ccc(Cc2cc(O)n(-c3ccc(C)cc3)c2O)cc1 > 100 µM
Cc1ccc(O)c(N=CCC(=O)c2ccc(F)cc2)c1 > 100 µM

Query molecule follows.
Retrieve EC50 measured for `COc1cccc(CN=Nc2nn3cnnc3c3ccccc23)c1O` and print it.
> 100 µM

Data origin: BindingDB's records for doi:10.7270/Q2ST7N9K
